# System: HPV-16
# protocol.notes: qPCR sensitivity against HPV-HNSCC tumor samples diluted among 10 ng normal human DNA
# conditions.used: tumor DNA dilution, fraction of 32 samples
quantity: Sensitivity, 3 cells
// print number alone

Query string: Could you tell me which Sensitivity, 3 cells is on file for BR E6-1: HPV-16 E6 region (172-373 bp) primer/probe set, SEQ ID NO: 58-60 (nucleic acid, chemistry not given here) DNA 1: CAGTTACTGCGACGTGAGGT DNA 2: ACAGCATATGGATTCCCATCTC DNA 3: ACTTTGCTTTTCGGGATTTATGCATAGTA ?
Result string: 0.344

Query string: Could you tell me which Sensitivity, 3 cells is on file for E6: previously designed (historical) HPV-16 E6 primers and Taqman probe, SEQ ID NO: 7-9, positive control (nucleic acid, Taqman probe, labels not given here) DNA 1: TCAGGACCCACAGGAGCG DNA 2: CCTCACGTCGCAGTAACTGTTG DNA 3: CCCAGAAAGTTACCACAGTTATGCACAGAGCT ?
Result string: 0.250

Query string: Could you tell me which Sensitivity, 3 cells is on file for E7: previously designed (historical) HPV-16 E7 primers and Taqman probe, SEQ ID NO: 10-12; part of CLIA test (nucleic acid, Taqman probe, labels not given here, part of CLIA test) DNA 1: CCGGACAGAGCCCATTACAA DNA 2: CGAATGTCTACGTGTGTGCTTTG DNA 3: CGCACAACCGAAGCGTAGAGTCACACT ?
Result string: 0.375
